Test Target: EGFR del19/T790M/C797S (Homo sapiens, UniProt P00533, C797S/DEL746-750/T790M)
Sequence (P00533 with tags, fused parts or gaps DEL746-750/T790M/C797S): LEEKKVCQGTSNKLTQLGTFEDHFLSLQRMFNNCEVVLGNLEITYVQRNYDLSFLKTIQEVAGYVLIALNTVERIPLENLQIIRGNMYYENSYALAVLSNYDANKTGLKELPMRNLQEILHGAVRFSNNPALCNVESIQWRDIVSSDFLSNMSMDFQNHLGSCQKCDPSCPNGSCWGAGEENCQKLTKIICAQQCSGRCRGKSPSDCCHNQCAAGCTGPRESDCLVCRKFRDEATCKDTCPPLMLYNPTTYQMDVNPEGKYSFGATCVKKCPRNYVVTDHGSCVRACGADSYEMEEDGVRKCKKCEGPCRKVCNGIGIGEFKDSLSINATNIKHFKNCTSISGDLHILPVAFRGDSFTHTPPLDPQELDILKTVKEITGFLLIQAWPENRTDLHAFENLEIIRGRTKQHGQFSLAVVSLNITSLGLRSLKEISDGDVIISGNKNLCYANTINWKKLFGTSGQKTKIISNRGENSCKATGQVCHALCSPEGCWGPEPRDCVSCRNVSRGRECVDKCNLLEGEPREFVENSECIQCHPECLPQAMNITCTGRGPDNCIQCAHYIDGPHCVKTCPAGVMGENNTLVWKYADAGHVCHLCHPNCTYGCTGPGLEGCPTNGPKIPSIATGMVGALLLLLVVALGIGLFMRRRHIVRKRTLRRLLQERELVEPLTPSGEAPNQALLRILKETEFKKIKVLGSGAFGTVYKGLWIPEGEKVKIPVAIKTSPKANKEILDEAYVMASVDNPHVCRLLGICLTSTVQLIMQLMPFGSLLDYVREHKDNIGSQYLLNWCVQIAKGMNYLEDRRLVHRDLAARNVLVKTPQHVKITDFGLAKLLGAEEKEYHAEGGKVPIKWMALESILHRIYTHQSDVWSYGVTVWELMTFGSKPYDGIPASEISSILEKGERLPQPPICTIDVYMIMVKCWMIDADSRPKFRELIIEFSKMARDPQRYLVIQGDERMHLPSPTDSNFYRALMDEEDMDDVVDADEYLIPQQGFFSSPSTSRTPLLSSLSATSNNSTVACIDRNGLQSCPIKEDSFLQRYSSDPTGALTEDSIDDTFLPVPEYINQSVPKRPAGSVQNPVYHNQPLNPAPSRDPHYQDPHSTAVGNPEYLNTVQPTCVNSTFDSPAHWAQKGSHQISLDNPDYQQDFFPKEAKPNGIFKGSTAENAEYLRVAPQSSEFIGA
Experiment Notes: Biochemical EGFR kinase assay (Lance Ultra TR-FRET), triple mutant del19/T790M/C797S
Setup Conditions: IC50 del19/T790M/C797S, 100 μM ATP
Experimental Readout: IC50 (nM)

For orientation, consider the following solved cases.
O=S(=O)(C1CC1)n1cc(-c2nccc(Nc3cc(N[C@H]4CC[C@@H](CO)CC4)c(-c4cccc(CC(F)(F)F)n4)cn3)n2)cn1	7.2
O=S(=O)(C1CC1)n1cc(-c2nccc(Nc3cc(N[C@H]4CC[C@@H](CO)CC4)c(-c4cc(NC5CC(F)(F)C5)ccn4)cn3)n2)cn1	5.6
O=S(=O)(C1CC1)n1cc(-c2nccc(Nc3cc(N[C@H]4CC[C@@H](CO)CC4)c(-c4ccnc(N[C@H]5CC[C@@H](CO)CC5)n4)cn3)n2)cn1	0.6
CN(C)C[C@H]1CC[C@@H](Nc2cc(Nc3ccnc(-c4cnn(S(=O)(=O)C5CC5)c4)n3)ncc2-c2cccc(F)n2)CC1	0.1

[1] C[C@]1(O)CC[C@@H](Nc2cc(Nc3ccnc(-c4cnn(S(=O)(=O)C5CC5)c4)n3)ncc2-c2cc(NCCN3CCOCC3)ccn2)CC1
[2] CC(C)(O)[C@H]1CC[C@@H](Nc2cc(Nc3ccnc(-c4cnn(S(=O)(=O)C5CC5)c4)n3)ncc2-c2ccc(OC(F)(F)F)cn2)CC1
From the items above, decide which of 1 and 2 has the lower IC50 reading. Returns: label corresponding to the selected item.
1

---

Test Target: EGFR wildtype (Homo sapiens)
Sequence (P00533 25-1210): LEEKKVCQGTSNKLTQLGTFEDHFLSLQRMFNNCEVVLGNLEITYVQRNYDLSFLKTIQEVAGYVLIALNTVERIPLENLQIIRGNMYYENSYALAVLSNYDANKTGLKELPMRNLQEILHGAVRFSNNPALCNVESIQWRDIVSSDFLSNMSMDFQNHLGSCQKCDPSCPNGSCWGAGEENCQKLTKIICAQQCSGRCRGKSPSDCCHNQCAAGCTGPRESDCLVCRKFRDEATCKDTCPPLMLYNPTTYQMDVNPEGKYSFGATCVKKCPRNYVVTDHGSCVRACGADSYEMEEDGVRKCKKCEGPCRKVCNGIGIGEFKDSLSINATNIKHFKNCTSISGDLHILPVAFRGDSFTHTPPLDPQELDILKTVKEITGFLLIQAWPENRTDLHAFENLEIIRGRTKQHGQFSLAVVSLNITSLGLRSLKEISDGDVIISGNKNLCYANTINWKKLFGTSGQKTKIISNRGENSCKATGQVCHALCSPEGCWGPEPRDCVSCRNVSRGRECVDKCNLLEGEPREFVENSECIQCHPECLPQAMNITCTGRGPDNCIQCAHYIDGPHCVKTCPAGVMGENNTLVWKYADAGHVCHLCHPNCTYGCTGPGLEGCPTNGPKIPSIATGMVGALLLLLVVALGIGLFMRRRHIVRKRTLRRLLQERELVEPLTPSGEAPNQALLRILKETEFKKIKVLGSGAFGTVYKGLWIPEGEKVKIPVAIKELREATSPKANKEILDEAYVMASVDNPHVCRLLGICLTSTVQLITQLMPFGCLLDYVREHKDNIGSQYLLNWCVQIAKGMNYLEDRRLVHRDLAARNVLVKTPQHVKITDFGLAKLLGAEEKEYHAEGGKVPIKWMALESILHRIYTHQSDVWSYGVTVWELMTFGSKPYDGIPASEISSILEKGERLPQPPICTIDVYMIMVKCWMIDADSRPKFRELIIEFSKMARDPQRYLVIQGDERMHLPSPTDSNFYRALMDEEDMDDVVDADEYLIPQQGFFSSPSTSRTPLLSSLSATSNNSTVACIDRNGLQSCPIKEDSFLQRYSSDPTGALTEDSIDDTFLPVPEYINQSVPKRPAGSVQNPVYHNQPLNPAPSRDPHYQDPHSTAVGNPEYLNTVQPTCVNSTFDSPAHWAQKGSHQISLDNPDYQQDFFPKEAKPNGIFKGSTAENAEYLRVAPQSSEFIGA
Experiment Notes: Biochemical EGFR kinase assay (Lance Ultra TR-FRET), wildtype
Setup Conditions: ATP at Km; read-out: IC50 WT, Km ATP
pIC50: −log10 of the molar value.
Experimental Readout: pIC50

CC(C)(O)c1ccc(-c2cnc(Nc3ccnc(-c4cnn(S(=O)(=O)C5CC5)c4)n3)cc2NC2CCCN(CCF)C2)nc1 (stereo not drawn)	7.39

[I] CC(C)(F)c1ccc(-c2cnc(Nc3ccnc(-c4cnn(S(=O)(=O)C5CC5)c4)n3)cc2NC2CCC(F)(F)CC2)nc1
[II] CC(C)(O)c1ccc(-c2cnc(Nc3ccnc(-c4cnn(S(=O)(=O)C5CC5)c4)n3)cc2NC2CCC(F)(F)CC2)nc1
Just tell me: smaller pIC50 value, I or II ? // caller expects the label of the chosen entry
I
(I: 6.13, II: 7.04)

---

Test Target: UniProt P00533
Experiment Notes: Biochemical EGFR kinase assay (Lance Ultra TR-FRET), wildtype
Setup Conditions: ATP at Km; read-out: IC50 WT, Km ATP
pIC50: −log10 of the molar value.
Experimental Readout: pIC50

CC(C)(O)[C@H]1CC[C@@H](Nc2cc(Nc3ccnc(-c4cnn(S(=O)(=O)C5CC5)c4)n3)ncc2-c2ccc(CC(F)(F)F)cn2)CC1	6.94

[I] CC(C)(O)[C@H]1CC[C@@H](Nc2cc(Nc3ccnc(-c4cnn(S(=O)(=O)C5CC5)c4)n3)ncc2-c2cccc(CC(F)(F)F)n2)CC1
[II] CC(C)Nc1cc(Nc2ccnc(-c3cnn(S(=O)(=O)C4CC4)c3)n2)ncc1-c1ccc(C(C)(O)C(F)(F)F)cn1 (stereo not drawn)
Hi! Which is lower in terms of pIC50, the first one I or the second one II ? To answer, give the label that identifies your chosen option.
I
(I: 6.96, II: 7.35)
